Molecular target: Epidermal growth factor receptor (Homo sapiens, UniProt P00533, L858R)
Sequence (P00533 25-1210 L858R limits assumed): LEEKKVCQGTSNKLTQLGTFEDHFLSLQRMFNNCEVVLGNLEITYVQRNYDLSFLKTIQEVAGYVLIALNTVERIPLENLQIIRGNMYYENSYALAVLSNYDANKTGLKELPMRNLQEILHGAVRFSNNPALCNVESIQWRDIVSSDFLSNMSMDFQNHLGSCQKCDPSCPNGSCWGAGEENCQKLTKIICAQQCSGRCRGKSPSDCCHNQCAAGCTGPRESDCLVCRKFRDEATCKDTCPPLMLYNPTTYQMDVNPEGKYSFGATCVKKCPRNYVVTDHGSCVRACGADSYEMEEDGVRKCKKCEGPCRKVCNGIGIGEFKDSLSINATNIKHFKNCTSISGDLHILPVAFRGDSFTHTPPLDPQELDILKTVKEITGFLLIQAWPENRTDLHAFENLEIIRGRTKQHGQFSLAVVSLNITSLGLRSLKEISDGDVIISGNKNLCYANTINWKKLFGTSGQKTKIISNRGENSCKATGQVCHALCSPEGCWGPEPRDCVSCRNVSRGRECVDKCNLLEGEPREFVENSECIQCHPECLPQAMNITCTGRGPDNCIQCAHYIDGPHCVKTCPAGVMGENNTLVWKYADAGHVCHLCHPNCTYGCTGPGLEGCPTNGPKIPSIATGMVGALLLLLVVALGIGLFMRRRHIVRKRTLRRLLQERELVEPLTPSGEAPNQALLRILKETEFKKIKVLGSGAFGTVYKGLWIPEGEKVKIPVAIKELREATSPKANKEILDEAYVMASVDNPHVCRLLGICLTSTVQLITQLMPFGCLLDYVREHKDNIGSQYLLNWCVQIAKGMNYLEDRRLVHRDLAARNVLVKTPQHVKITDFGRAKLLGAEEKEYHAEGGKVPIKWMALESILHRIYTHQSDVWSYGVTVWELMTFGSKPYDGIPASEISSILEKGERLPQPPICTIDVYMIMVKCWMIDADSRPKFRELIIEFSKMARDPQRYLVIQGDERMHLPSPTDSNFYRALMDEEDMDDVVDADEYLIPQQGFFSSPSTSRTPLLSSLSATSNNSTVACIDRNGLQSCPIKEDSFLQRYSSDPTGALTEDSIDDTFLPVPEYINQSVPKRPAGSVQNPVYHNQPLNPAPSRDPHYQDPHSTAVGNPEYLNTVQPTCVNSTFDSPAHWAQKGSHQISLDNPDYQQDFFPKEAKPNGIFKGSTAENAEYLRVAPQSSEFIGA
Assay: Inhibition of EGFR L858R (unknown origin) by Eurofins kinase profiler method
measured_attribute: pIC50
Please treat pIC50 as minus the base-10 logarithm of the molar concentration.

Request: pIC50, test system Epidermal growth factor receptor (Homo sapiens, UniProt P00533, L858R), entry `COc1ccc(C(=O)/C=C/C(=O)N2CCN(C3CCN(c4ccc(Nc5ncc(Cl)c(Nc6ccccc6P(C)(C)=O)n5)c(OC)c4)CC3)CC2)cc1`
7.01

Source: ChEMBL document CHEMBL6103556
